So I've got a bunch of compounds here, and I need their T/C values.
System: L1210 leukemia ip in BDF1 mice, survival T/C
Assay: NCI In Vivo Anticancer Drug Screen. Data for tumor model L1210 Leukemia (intraperitoneal) in B6D2F1 (BDF1) mice
Conditions: endpoint: mean survival time; dose: 400.0 mg/kg/injection; schedule: Q04DX002 (ip); vehicle: Klucel (hydroxypropylcellulose) (HPC); higher = longer survival
Procedure: The antitumor activity of compounds was measured in mice bearing transplantable tumors. Survival or tumor size were measured and the results are expressed as the measurement made in the treated group (T) divided by the measurement made in the vehicle treated control group (C). The tumor model used in this assay is L1210 Leukemia (intraperitoneal) in B6D2F1 (BDF1) mice
Inconclusive results and toxic doses are left out.

Lab note: measured T/C of O=C1OCC/C1=C/OCCCCCO/C=C1/CCOC1=O was 90 % of control

So for CC1(C)OC(=O)CC1CCCC(=O)O (stereo not drawn) , the logged T/C turned out to be 96 % of control

Item: C=CCCCCCCCCC(=O)N/N=C(/C)c1ccc(C)cc1 | T/C: 92 % of control

The reported value for O=C(O)c1ncn[nH]1 in terms of T/C is 89 % of control

Record O=C1OC(c2ccccc2)=N/C1=C\c1cccnc1 , field T/C: 86 % of control

Record summary for O=C1/C(=C\c2ccc(Cl)c(Cl)c2)N2CCC1CC2 : reported T/C = 114 % of control

Looking up CCOC(=O)CNc1cccc(C)c1C , I found its T/C recorded as 100 % of control

Record summary for CC(C)OC(=O)COc1cc(F)c(Cl)cc1Cl : reported T/C = 102 % of control

T/C reported for this compound CCNC(=O)OCC1C2CCC(O2)C1COC(=O)NCC (stereo not drawn) : 98 % of control

For this compound ( CC(=O)OCC1OC(OCC2OC(Sc3ccccc3)C(OC(C)=O)C(OC(C)=O)C2OC(C)=O)C(OC(C)=O)C(OC(C)=O)C1OC(C)=O (stereo not drawn) ), measured T/C is 86 % of control

The compound identified as Cc1ccc(C)c(NC(=O)NC(C)(C)C)c1 registered its T/C at 117 % of control

T/C measured on O=C(O)CSc1ccc([N+](=O)[O-])cc1[N+](=O)[O-] = 96 % of control

Kindly note the recorded T/C for Cc1ccc(N(C)CC#CCOc2ccc(Br)cc2)cc1 , which is 99 % of control

The reported value for Nc1ccc(C(=O)c2ccc(N)cc2)cc1 in terms of T/C is 96 % of control

# compound OCC(O)C(O)C(O)C(O)C(SCc1ccccc1)SCc1ccccc1 (stereo not drawn) ; its T/C = 92 % of control

// T/C value for CC1(CC(=O)O)CCCCC1CC(=O)O (stereo not drawn) : 97 % of control

According to the records, this compound CC1=CC(=C(C#N)C#N)CC(C)(C)C1 displays T/C of 93 % of control

Data point: Cc1cc(Cl)cc2sc(=S)[nH]c12 ; T/C = 110 % of control

Reported T/C for COC(=O)C(=O)CC(=O)c1ccccc1 was 118 % of control

For Cc1ccc(S(=O)(=O)NC(CCl)=NCc2ccccc2)cc1 the compound record lists T/C as 114 % of control

Value of measured T/C for the entry Cc1cc2nc(-c3cc4cc(Cl)cc(Cl)c4oc3=O)[nH]c2cc1C : 115 % of control

Measured T/C, O=C(O)c1ccccc1N=Cc1ccc[nH]1 : 96 % of control

T/C in this record for CCCCCCCCCCCCCCCCCCNC(=O)Nc1ccccc1OC : 96 % of control

Where these numbers come from: PubChem BioAssay AID248
